Hey, just so you know, these numbers are from patent US20230123334A1.

The entries below come with measured Absolute DNA transfection efficiency in HEK293 cells values attached.
# Test system: HEK293 cells
# run description: Preliminary screening as DNA vectors, GFP transfection of HEK293 cells
# Format: cell-based
# test context: HEK293 cells; lipid/DOPE liposome with 75 ng plasmid DNA (psin-EGFP-IRES-Puro); number of cells expressing GFP divided by total number of nuclei (Hoechst)
The answer is to be given in %; state only the numeric part.

Worked examples follow.
Ask: Return Absolute DNA transfection efficiency in HEK293 cells measured with HEK293 cells given this molecule: `CCCCCCCCCCCCCCCCSc1nc(NCCN2CCCCC2)nc(SCCCCCCCCCCCCCCC)n1`
Reply: 2.0

Ask: Please answer likewise for `CCCCCCCCCCCCN(CCCCCCCCCCCC)c1nc(NCCCN2CCN(C)CC2)nc(N(CCCCCCCCCCCC)CCCCCCCCCCCC)n1`
Reply: 0.2

Ask: Try this molecule too: `CCCCCCCCCCCCCCCCNc1nc(NCCCCCCCCC)nc(NCCN2CCCC2)n1`
Reply: 2.2

Further cases:
Ask: So what Absolute DNA transfection efficiency in HEK293 cells did `CCCCCCCCCCCCCCSc1nc(NCC2CCN(C)CC2)nc(SCCCCCCCCCC)n1` get with HEK293 cells?
Reply: 23.0

Ask: For `CCCCCCCCCCCNc1nc(NCCCCCCCC)nc(NCCN2CCCCC2)n1` then?
Reply: 0.2

Ask: And what about the molecule `CCCCCCCCCCCCCCSc1nc(NCCN(CC)CC)nc(SCCCCCCCCCCCC)n1` ?
Reply: 3.3

###

# run description: Particle size and PDI of lipid nanoparticles (Nano-ZSZEN3600, Malvern)
# Format: physicochemical
# test context: LNPs, Formulation Method 1 (amino lipid:DOPE:cholesterol:PEG2000-DMG 45:10:42.5:2.5), Fluc mRNA
experimental readout: Particle size (nm)
Number only, in nm; omit the unit.

Sample records with Particle size (nm):
Ask: Item under review: CCCCCCCCCCCCCCCCSc1nc(NCCN2CCN(C)CC2)nc(SCCCCCCCCC)n1 [Compound S9S16D5] . Reported Particle size (nm)?
Reply: 152

Ask: Record: CCCCCCCCCCCCCCCCSc1nc(NCCCN2CCN(C)CC2)nc(SCCCCCCCC)n1 [Compound S8S16D9]
Reply: 96

Ask: Repeat with CCCCCCCCCCCCCNc1nc(NCCCN(C)C)nc(SCCCCCCCCCCCC)n1 [Compound S12N13D6]
Reply: 89

Alright, here's another compound for you.
Ask: Sample CCCCCCCC/C=C\CCCCCCCCSc1nc(OCC2CCN(C)CC2)nc(SCCCCCCCCC)n1 [Compound S19S9O9] — what was its Particle size (nm)?
Reply: 110

###

# System: HEK293 cells
# run description: Preliminary screening as DNA vectors, GFP transfection of HEK293 cells
# Format: cell-based
# test context: amino lipid/DOPE liposome with 75 ng plasmid DNA (psin-EGFP-IRES-Puro); number of GFP-expressing cells divided by total nuclei (Hoechst)
Define the label as 1 when Absolute DNA transfection efficiency in HEK293 cells is strictly less than 0.2% and as -1 in all remaining cases.

These recorded examples may help you get a feel for the data.
Ask: Please determine if `CCCCCCCCCCCCCCCNc1nc(NCCN2CCN(C)CC2)nc(SCCCCCCCCC)n1` is below 0.2% in terms of Absolute DNA transfection efficiency in HEK293 cells.
Reply: -1

Ask: Record: CCCCCCCCCCCCCCCCCCNc1nc(NCCN2CCOCC2)nc(SCCCCCCCCCCCC)n1 [S12N18 D2]
Reply: 1

Ask: Similarly, `CCCCCCCCCCCCCCSc1nc(NCCN2CCN(C)CC2)nc(N(CCCCCCCCCCCC)CCCCCCCCCCCC)n1` ?
Reply: 1

Ask: What would you report for `CCCCCCCCCCCCCCCCCCNc1nc(NCCCN2CCN(C)CC2)nc(SCCCCCCCCCC)n1` ?
Reply: -1

Further cases:
Ask: Determine whether this molecule shows Absolute DNA transfection efficiency in HEK293 cells lower than 0.2% (ties excluded): `CCCCCCCCCCCCCCCCCCSc1nc(NCCCCCCCCCCCCC)nc(NCCN2CCCCC2)n1`
Reply: 1

Ask: Same thing, different molecule: `CCCCCCCCCCCCCCCSc1nc(NCCCCCC)nc(NCCN(CC)CC)n1`
Reply: -1

Ask: Let us now turn to CCCCCCCCCCCCCCSc1nc(NCCCCCCCCCCCCC)nc(NCCN2CCOCC2)n1 [S14N13 D2]
Reply: 1
